# TARGET_ENTITY: recombinant human SOS1 polypeptide (amino acids 560-1049) (Homo sapiens, UniProt Q07889)
# Construct: corresponding to amino acids 560-1049, expressed in E. Coli; made in house; host or cells: E. coli
# Sequence (Q07889 560-1049): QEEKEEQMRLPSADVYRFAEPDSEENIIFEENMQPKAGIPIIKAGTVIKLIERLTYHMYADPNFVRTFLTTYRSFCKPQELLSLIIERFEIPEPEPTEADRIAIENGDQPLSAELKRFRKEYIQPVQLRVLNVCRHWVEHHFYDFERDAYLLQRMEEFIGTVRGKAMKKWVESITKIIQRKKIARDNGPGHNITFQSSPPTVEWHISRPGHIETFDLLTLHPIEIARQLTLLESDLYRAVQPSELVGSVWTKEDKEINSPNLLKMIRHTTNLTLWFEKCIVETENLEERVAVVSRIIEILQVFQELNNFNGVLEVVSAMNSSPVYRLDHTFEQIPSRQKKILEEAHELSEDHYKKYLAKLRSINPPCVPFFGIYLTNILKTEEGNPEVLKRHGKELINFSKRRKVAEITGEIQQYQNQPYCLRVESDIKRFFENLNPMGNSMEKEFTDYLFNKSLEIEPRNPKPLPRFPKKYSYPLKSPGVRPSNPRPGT
# ASSAY_NOTES: HTRF displacement assay: inhibition of labeled tracer binding to SOS1
# RUN_CONDITIONS: Table A1, Morrison equation for competitive binding
Counter-ions that a name gives are not always drawn.
// Ki lookup, one value per entry
Give a bare numeral; the unit nM is implied.

Example molecules with recorded Ki:
| MOLECULE | REPORTED |
| --- | --- |
| Cc1c(C#N)cccc1[C@@H](C)Nc1nnc(N2CC(N(C)C)C2)c2cnc(N3C[C@H]4C[C@@H]3CO4)cc12 | 0.491 |
| Cc1nnc(N[C@H](C)c2cccc(C(F)F)c2F)c2cc(N3CCC34COC4)ncc12 | 2.75 |
| Cc1c(C#N)cccc1[C@@H](C)Nc1nnc(N2CC[C@H](N(C)C)C2)c2cnc(N3C[C@H]4C[C@@H]3CO4)cc12 | 0.708 |
| Cc1nnc(N[C@H](C)c2cccc3c2OCC3(F)F)c2cc(N3C[C@@H]4C[C@H]3CN4C)ncc12 [Example P-184, formic acid salt] | 1.02 |
| COC1(c2cc3c(N[C@H](C)c4cccc(C#N)c4C)nnc(C)c3cn2)CCOCC1 | 61.7 |

**Query** Which measured Ki value corresponds to Cc1c(C#N)cccc1[C@@H](C)Nc1nnc(C)c2cnc(N3CCCCC3)cc12 ?
**Result** 2.22

**Query** // repeat for Cc1c(C#N)cccc1[C@@H](C)Nc1nnc(C)c2cnc(N3CCOCC34CN(C)C4)cc12 and report
**Result** 13.4
